Assay: Antiestrogenic activity against Estradiol (E2) induced cell proliferation
Set-up: concentration or dose not given beside the values
// reported Activity per item
Write the number in % without appending the unit.

Look over these answered cases.
                                   molecule  observation_type  numeric_result
0  CCCCN(C)C(=O)CCCCCCCCCCSC(Cc1ccc(OCc2ccccc2)cc1)c1ccc(OC)cc1 (stereo not given)          Activity              42
1  COc1ccc(C(Cc2ccc(OCc3ccccc3)cc2)SCCCCCCCCCCCO)cc1 (stereo not given)          Activity              41
2  CCCCN(C)C(=O)CCCCCCCCCCCSC(Cc1ccc(O)cc1)c1ccc(OC)cc1 (stereo not given)          Activity              55

input: Fill in reported Activity for this entry: CCCCN(C)C(=O)CCCCCCCSC(Cc1ccc(O)cc1)c1ccc(OC)cc1 (stereo not given)
output: 66

input: // Input: CCCCN(C)C(=O)CCSC(Cc1ccc(OC)cc1)c1ccc(OC)cc1 (stereo not given) . Output its Activity only.
output: 57

###

Molecular target: Estrogen receptor (Homo sapiens) (UniProt Q92731+P03372)
Test: Ability to stimulate the basal cell proliferation of ZR-75-1 cells at a dose of 1 uM
Assay type: functional, cell-based
Recorded Binding ((ng of DNA) dish-1), one value per entry.
Give your answer as a number; write no unit.

// worked examples, Binding ((ng of DNA) dish-1) included
>>> print(df.to_string())
                                   compound                               system_name  numeric_result
0  CCCCN(C)C(=O)CCCCCCCSC(Cc1ccc(OCc2ccccc2)cc1)c1ccc(OC)cc1 (stereo not given)  Estrogen receptor (Homo sapiens) (UniProt Q92731+P03372)             791
1  OCCCCCCCCCCCSC(Cc1ccc(O)cc1)c1ccc(O)cc1 (stereo not given)  Estrogen receptor (Homo sapiens) (UniProt Q92731+P03372)            1540
2  COc1ccc(C(Cc2ccc(OCc3ccccc3)cc2)SCCCCCCCCCCCO)cc1 (stereo not given)  Estrogen receptor (Homo sapiens) (UniProt Q92731+P03372)             725
3  CCCCN(C)C(=O)CCSC(Cc1ccc(OC)cc1)c1ccc(OC)cc1 (stereo not given)  Estrogen receptor (Homo sapiens) (UniProt Q92731+P03372)             741
4  CCCCN(C)C(=O)CCCCCCCSC(Cc1ccc(O)cc1)c1ccc(OC)cc1 (stereo not given)  Estrogen receptor (Homo sapiens) (UniProt Q92731+P03372)             698

Moving on to the next compound.
input: Provide only the value of recorded Binding ((ng of DNA) dish-1) for CCCCN(C)C(=O)CCCCCCCCCCSC(Cc1ccc(O)cc1)c1ccc(OC)cc1 (stereo not given)
output: 733

###

Target: Estrogen receptor (Homo sapiens) (UniProt Q92731+P03372)
Experiment: Ability to stimulate the basal cell proliferation of ZR-75-1 cells at a dose of 1 uM
Format: functional, cell-based
observation-type: Binding ((ng of DNA) dish-1)
Please state the value as a number alone, without comment.

                                   compound  numeric_result
0  CCCCN(C)C(=O)CCSC(Cc1ccc(O)cc1)c1ccc(O)cc1 (configuration not stated)            1890
1  CCCCN(C)C(=O)CCCCCSC(Cc1ccc(O)cc1)c1ccc(O)cc1 (configuration not stated)            1440
2  CCCCN(C)C(=O)CCCCCCCCCCCSC(Cc1ccc(OC)cc1)c1ccc(OC)cc1 (configuration not stated)             800

input: Supply Binding ((ng of DNA) dish-1) value. Item: CCCCN(C)C(=O)CCSC(Cc1ccc(OCc2ccccc2)cc1)c1ccc(OC)cc1 (configuration not stated)
output: 789

input: Provide only the value of recorded Binding ((ng of DNA) dish-1) for CCCCN(C)C(=O)CCCCCCCCCCSC(Cc1ccc(O)cc1)c1ccc(O)cc1 (configuration not stated)
output: 1150

input: Fill in reported Binding ((ng of DNA) dish-1) for this entry: CCCCN(C)C(=O)CCCCCCCCCCSC(Cc1ccc(OCc2ccccc2)cc1)c1ccc(OC)cc1 (configuration not stated)
output: 749

input: Report Binding ((ng of DNA) dish-1), nothing else, for this compound: CCCCN(C)C(=O)CCSC(Cc1ccc(O)cc1)c1ccc(OC)cc1 (configuration not stated)
output: 684

###

Biological target: Estrogen receptor (Homo sapiens) (UniProt Q92731+P03372)
Test: Ability to inhibit E2-induced proliferation of ZR-75-1 cells at a dose of 1 uM
Assay type: functional, cell-based
The following compounds are listed with their measured DNA content per dish (cell proliferation) ((ng of DNA) dish-1) values.
Give the figure by itself; no unit, no explanation.

Worked set:
>>> print(df.to_string())
                                   compound  numeric_result
0  CCCCN(C)C(=O)CCSC(Cc1ccc(O)cc1)c1ccc(OC)cc1 (stereo not given)             902
1  CCCCN(C)C(=O)CCCCCCCCCCCSC(Cc1ccc(O)cc1)c1ccc(OC)cc1 (stereo not given)            1090
2  CCCCN(C)C(=O)CCCCCCCSC(Cc1ccc(O)cc1)c1ccc(O)cc1 (stereo not given)            2070
3  CCCCN(C)C(=O)CCCCCCCCCCSC(Cc1ccc(O)cc1)c1ccc(OC)cc1 (stereo not given)            1320
4  CCCCN(C)C(=O)CCCCCCCCCCSC(Cc1ccc(O)cc1)c1ccc(O)cc1 (stereo not given)            1390

input: Report its DNA content per dish (cell proliferation) ((ng of DNA) dish-1) with Estrogen receptor (Homo sapiens) (UniProt Q92731+P03372) as the test system: CCCCN(C)C(=O)CCSC(Cc1ccc(OC)cc1)c1ccc(OC)cc1 (stereo not given)
output: 1010

###

Test: Compound was tested for percent inhibition of the Estradiol (E2) induced cell proliferation
Parameters: concentration or dose not given beside the values
observation-type: Activity (%)
Only the number, expressed in %, is required.

Here are 5 compounds together with their reported answers.
In [3]: df
Out[3]:
                                   compound  observation_type  unit_abbrev  numeric_result
0  COc1ccc(C(Cc2ccc(O)cc2)SCCCCCCCCCCCO)cc1 (stereo unspecified)          Activity            %              31
1  OCCCCCCCCCCCSC(Cc1ccc(O)cc1)c1ccc(O)cc1 (stereo unspecified)          Activity            %              42
2  CCCCN(C)C(=O)CCCCCCCCCCC1Cc2cc(O)ccc2[C@H]2CC[C@]3(C)[C@@H](O)[C@H](Cl)C[C@H]3[C@H]12 (stereo partly specified)          Activity            %              94
3  CCCCN(C)C(=O)CCCCCCCSC(Cc1ccc(O)cc1)c1ccc(O)cc1 (stereo unspecified)          Activity            %              44
4  CCCCN(C)C(=O)CCCCCCCCCCSC(Cc1ccc(O)cc1)c1ccc(O)cc1 (stereo unspecified)          Activity            %              80

Read the next record carefully.
input: Look up and state reported Activity for CCCCN(C)C(=O)CCSC(Cc1ccc(O)cc1)c1ccc(O)cc1 (stereo unspecified)
output: 40

###

Biological target: Estrogen receptor (Homo sapiens) (UniProt Q92731+P03372)
Test: Ability to inhibit E2-induced proliferation of ZR-75-1 cells at a dose of 1 uM
Format: functional, cell-based
Each entry below carries its reported DNA content per dish (cell proliferation) ((ng of DNA) dish-1).
Write the value as a bare number.

Check out these entries, answers already filled in.
                                   compound                               system_name  numeric_result
0  COc1ccc(C(Cc2ccc(O)cc2)SCCCCCCCCCCCO)cc1 (configuration not stated)  Estrogen receptor (Homo sapiens) (UniProt Q92731+P03372)            1280
1  CCCCN(C)C(=O)CCCCCCCCCCSC(Cc1ccc(OCc2ccccc2)cc1)c1ccc(OC)cc1 (configuration not stated)  Estrogen receptor (Homo sapiens) (UniProt Q92731+P03372)            1120
2  OCCCCCCCCCCCSC(Cc1ccc(O)cc1)c1ccc(O)cc1 (configuration not stated)  Estrogen receptor (Homo sapiens) (UniProt Q92731+P03372)            2230
3  CCCCN(C)C(=O)CCCCCCCSC(Cc1ccc(O)cc1)c1ccc(OC)cc1 (configuration not stated)  Estrogen receptor (Homo sapiens) (UniProt Q92731+P03372)             915

input: Please look at CCCCN(C)C(=O)CCCCCSC(Cc1ccc(O)cc1)c1ccc(O)cc1 (configuration not stated) and tell me its recorded DNA content per dish (cell proliferation) ((ng of DNA) dish-1) on Estrogen receptor (Homo sapiens) (UniProt Q92731+P03372).
output: 2050

input: Lab note: Estrogen receptor (Homo sapiens) (UniProt Q92731+P03372) assay, enter DNA content per dish (cell proliferation) ((ng of DNA) dish-1) for COc1ccc(C(Cc2ccc(OCc3ccccc3)cc2)SCCCCCCCCCCCO)cc1 (configuration not stated) here
output: 1100

input: Output reported DNA content per dish (cell proliferation) ((ng of DNA) dish-1) of the compound CCCCN(C)C(=O)CCCCCCCSC(Cc1ccc(OCc2ccccc2)cc1)c1ccc(OC)cc1 (configuration not stated) on Estrogen receptor (Homo sapiens) (UniProt Q92731+P03372).
output: 1070

This collection of values is drawn from ChEMBL document CHEMBL1127816.
